Value source: PubChem BioAssay (NCI)

Below, each entry is listed with its recorded TGI.
- Tested on: PC-3 prostate
- assay notes: NCI tumour cell line growth inhibition, 48 h

compound="C=C1C(=O)C23CC1CCC2C12CO[C@H](O)[C@H]1C(C)(C)[C@H](OC(C)=O)C[C@H]2OC3=O (some centres undefined)" assay_result="> 100 µM"

Pending compound:
Value of measured TGI for the entry CCC1c2[nH]c3ccccc3c2C[C@H]2C(=O)NC(Cc3c[nH]c4ccccc34)C(=O)N12 (some centres undefined) : 53.1 µM

====

- Tested on: HT29 colon
- assay notes: NCI tumour cell line growth inhibition, 48 h
compounds and their reported TGI
Reply with just the number (in µM).

Reference set (2 entries):
smiles_data=c1ccc2c(c1)N[C@@H]1c3[nH]c4ccccc4c3CC[C@H]21 assay_result=29.7
smiles_data=CCOC(=O)c1cc(C)n(CN(CCO)Cn2nc(C(=O)OCC)cc2C)n1 assay_result=47.4

Pending compound:
Record `CCNCCNc1cc(-c2ccc(Cl)c(Cl)c2)c(C#N)c2nc3ccccc3n12` . Reported TGI: 1.42

====

- System: SK-MEL-28 melanoma
- assay notes: NCI tumour cell line growth inhibition, 48 h
observation type: GI50

smiles_data=CCCCCC[n+]1noc(N)c1-c1ccc(-c2c(N)on[n+]2CCCCCC)cc1 assay_result="1.69 µg/mL"
smiles_data=C#CC#CC#CC#CC#CC#CC#CC#CC[C@@H]1OC[C@H](COC(=O)O[C@@H](C(=O)O[C@H]2C[C@@]3(O)[C@@H](OC(=O)c4ccccc4)[C@@H]4[C@]5(OC(C)=O)CO[C@@H]5C[C@H](O)[C@@]4(C)C(=O)[C@H](OC(C)=O)C(=C2C)C3(C)C)[C@@H](NC(=O)c2ccccc2)c2ccccc2)O1 assay_result="3.88 µM"

Reported GI50 of `COc1ccc(/C=C(/C(=O)N2CCCCC2)c2cc(OC)c(OC)c(OC)c2)cc1` : 8.89 µM

====

- Tested on: KM12 colon
- assay notes: NCI tumour cell line growth inhibition, 48 h; in the data active = GI50 below about 0.43 µM; inactive = the rest
Entry note: the call must match one of true (1) (active), false (0) (inactive)

Before answering, review these 5 worked examples.
molecule="COc1ccc(C2NC(=O)c3cc4c(cc3N2)OCO4)cc1 (configuration not stated)" category_label="false (0)"
molecule=Cc1cccc(-n2cnc3cc(C(=O)N4CCCCC4)ccc32)c1 category_label="false (0)"
molecule=COc1cc2nccc(Oc3ccc(NC(=O)C4(C(=O)Nc5ccc(F)cc5)CC4)cc3)c2cc1OC(=O)c1ccc(N)cc1 category_label="true (1)"
molecule=CC(=O)/C(=C\c1c(-c2ccccc2)[nH]c2ccccc12)S(C)(=O)=O category_label="false (0)"
molecule=O=c1cc(/C=C/c2ccc(O)c(O)c2)cc(/C=C/c2ccc(O)c(O)c2)o1 category_label="false (0)"

Qu. In this assay, the call recorded for `CCOc1ccccc1C(=O)/C=C/c1cc2ccccc2[nH]c1=O` was what?
Ans. true (1)

Qu. Per the records of this test, what outcome belongs to `Fc1ccc(-c2ncn(C3CCNCC3)c2-c2ccnc(Oc3cccc(C(F)(F)F)c3)n2)cc1` ?
Ans. false (0)

====

Entries and their measured TGI follow.
- System: HCT-116 colon
- assay notes: NCI tumour cell line growth inhibition, 48 h
# unit: µM | format: bare number

smiles_data=C#CCNCCCN1C(=O)c2ccc3c4c(ccc(c24)C1=O)C(=O)N(CCCNCC#C)C3=O system="HCT-116 colon" result_unit=µM assay_result=1.95

Recorded TGI (compound `C=C(C)[C@@H]1CC[C@]2(C(N)=O)CC[C@]3(C)[C@H](CC[C@@H]4[C@@]5(C)C/C(=C/c6cccnc6)C(=O)C(C)(C)[C@@H]5CC[C@]43C)[C@@H]12` ): 66.4
